Data provenance is patent US12133900B2.

assay: Chemical and optical properties of NIR dyes (Table 1); format: physicochemical
Please provide measured λex (nm) for the entries that follow.
Unit nm implied. Number only.

CC1(C)C(/C=C/C2=C(Oc3ccc(C[C@H](NC(=O)c4ccc(NCc5cnc6nc(N)[nH]c(=O)c6n5)cc4)C(=O)[O-])cc3)C(=C/C=C3\N(CCCCS(=O)(=O)[O-])c4ccc(S(=O)(=O)[O-])cc4C3(C)C)/CCC2)=[N+](CCCCS(=O)(=O)[O-])c2ccc(S(=O)(=O)[O-])cc21.[H+].[H+].[H+].[H+] has a reported λex (nm) of 796

CC1(C)C(/C=C/C2=C(Oc3ccc(S(=O)(=O)O)cc3)C(=C/C=C3/N(CCCCS(=O)(=O)O)c4ccc(S(=O)(=O)[O-])cc4C3(C)C)/CCC2)=[N+](CCCCCC(=O)O)c2ccc(S(=O)(=O)O)cc21 [IR800CW] has a reported λex (nm) of 800

CC1(C)C(=CC=C2CCCC(C=CC3=[N+](CCC[N+](C)(C)C)c4ccc(S(=O)(=O)O)cc4C3(C)C)=C2Oc2ccc(CCC(=O)O)cc2)N(CCC[N+](C)(C)C)c2ccc(S(=O)(=O)O)cc21 [ZW80o] has a reported λex (nm) of 788

CC1(C)C(/C=C/C=C/C=C/C=C2\N(CCCCS(=O)(=O)O)c3ccc4ccccc4c3C2(C)C)=[N+](CCCCS(=O)(=O)[O-])c2ccc3ccccc3c21 has a reported λex (nm) of 822
